Test system: wheat
Test protocol: Test A postemergence
Assay type: in vivo, Triticum aestivum
Condition description: Postemergence, 500 g ai/ha; visual rating after approx. 10 days, 0 to 100 scale (0 no effect, 100 complete control)
Excerpt: […]
For each record, write down the corresponding Wheat plant response rating.
Give bare numbers.

Items follow; give Wheat plant response rating for each.
1. Cc1cc(C(=O)NCC(F)(F)F)nn1Cc1cc(F)cc(C(F)(F)F)c1 [Compound 13]
2. CCCNC(=O)c1cc(CC)n(Cc2ccnc(C(F)(F)F)c2)n1 [Compound 75]
3. CCCc1cc(C(=O)Nc2ccc(F)cc2)nn1Oc1ccnc(C(F)(F)F)c1 [Compound 94]

[out]
1: 0; 2: 90; 3: 0
